Items are presented alongside their recorded IC50.
# assayed system: Hpk1 (Homo sapiens)
# Construct: expressed in transfected cells; host or cells: HEK293 cells engineered to express Hpk1 and SLP76
# assay remarks: SLP76 phosphorylation assay (HEK293 cells expressing Hpk1 and SLP76)
# Assay type: cell-based
# assay setup: SLP76 phosphorylation at S376, HEK293 cells expressing Hpk1 and SLP76, 4 hours incubation; read-out: pSLP76 (HEK293) (pIC50) (converted)
Report only the number, with the unit µM understood.

Solved cases (3 shown):
compound | parameter measured | measurement unit | assay value
CN(C)Cc1cc(-c2cnc3[nH]cc(C(=O)NCC(CO)C4CC4)c3c2)ccc1C1CCOCC1 (centres unmarked) [Co. 13] | IC50 | µM | 0.759
CC(C)[C@@H](CO)CNC(=O)c1c[nH]c2ncc(-c3ccc(C4CCOCC4)c(CN(C)C)c3)cc12 (single isomer, unassigned) [Co. 31b] | IC50 | µM | 1.32
c1coc(CNCc2c[nH]c3ncc(-c4ccc(C5CCOCC5)c(C5CCCN5)c4)cc23)n1 (centres unmarked) [Co. 35] | IC50 | µM | 3.02

Retrieve IC50 measured for N#CCc1c[nH]c2ncc(-c3ccc(C4CCOCC4)c([C@@H]4CCCN4)c3)cc12 [Co. 4] and print it.
0.12

Write down IC50 measured for item CN(C)Cc1cc(-c2cnc3[nH]cc(C(=O)N(C)C)c3c2)ccc1C1CCOCC1 [Co. 20b]
7.24

Return IC50 (reported value) for this compound: Cc1c[nH]c2ncc(-c3ccc(C4CCOCC4)c([C@@H]4CCCN4)c3)cc12 [Co. 1]
0.288

Fill in reported IC50 for this entry: CN(C)Cc1cc(-c2cnc3[nH]cc(C(=O)NCc4ncco4)c3c2)ccc1C1CCOCC1 [Co. 19]
1.02

----------
# assayed system: full-length human Hpk1 (Homo sapiens, UniProt Q92918)
# Construct: full-length human Hpk1 with an N-terminal Glutatione S-transferase (GST) tag; GST (N); made in house; host or cells: baculovirus/insect cell expression system
# Sequence (Q92918 whole entry): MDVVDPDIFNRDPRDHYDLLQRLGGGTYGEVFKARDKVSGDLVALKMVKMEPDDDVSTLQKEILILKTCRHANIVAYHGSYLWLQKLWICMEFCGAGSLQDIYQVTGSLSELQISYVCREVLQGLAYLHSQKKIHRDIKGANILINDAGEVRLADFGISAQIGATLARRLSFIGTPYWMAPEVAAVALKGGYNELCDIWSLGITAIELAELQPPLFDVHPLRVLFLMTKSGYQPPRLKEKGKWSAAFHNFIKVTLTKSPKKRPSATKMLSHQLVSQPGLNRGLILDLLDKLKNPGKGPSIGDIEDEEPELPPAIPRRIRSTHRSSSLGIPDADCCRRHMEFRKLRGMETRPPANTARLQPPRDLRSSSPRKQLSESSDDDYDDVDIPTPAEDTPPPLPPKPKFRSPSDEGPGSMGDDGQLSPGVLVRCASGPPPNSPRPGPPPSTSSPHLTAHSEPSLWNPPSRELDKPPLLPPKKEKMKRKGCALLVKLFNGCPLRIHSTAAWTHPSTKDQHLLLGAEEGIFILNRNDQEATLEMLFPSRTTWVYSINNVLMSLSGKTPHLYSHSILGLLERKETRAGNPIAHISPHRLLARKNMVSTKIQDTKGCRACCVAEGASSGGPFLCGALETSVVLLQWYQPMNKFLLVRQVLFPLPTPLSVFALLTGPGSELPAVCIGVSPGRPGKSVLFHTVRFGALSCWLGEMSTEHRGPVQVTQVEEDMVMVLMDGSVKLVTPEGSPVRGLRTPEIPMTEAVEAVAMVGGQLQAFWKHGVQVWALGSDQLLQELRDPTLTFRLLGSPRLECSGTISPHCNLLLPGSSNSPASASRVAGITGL
# assay remarks: HPK1 kinase assay (ADP Glo)
# Assay type: biochemical
# assay setup: GST-Hpk1, 75 μM ATP solution added, ADP Glo luminescence; read-out: Hpk1 biochemical (pIC50) (converted)
Threshold-based label: IC50 under 30 nM gives 1, IC50 not under 30 nM gives 0.

Worked examples, 5 compounds total:
compound | classification
CN(C)Cc1cc(-c2cnc3[nH]cc(C(=O)NCC4(CO)CC4)c3c2)ccc1C1CCOCC1 [Co. 15] | 1
CN(C)Cc1cc(-c2cnc3[nH]cc(C(=O)NCc4nccn4C)c3c2)ccc1C1CCOCC1 [Co. 20a] | 1
Cc1nc(CNC(=O)c2c[nH]c3ncc(-c4ccc(C5CCOCC5)c(CN(C)C)c4)cc23)no1 [Co. 22] | 0
CC(C)[C@@H](CO)CNC(=O)c1c[nH]c2ncc(-c3ccc(C4CCOCC4)c(CN(C)C)c3)cc12 (single isomer, unassigned) [Co. 31b] | 1
Cc1c[nH]c2ncc(-c3ccc(C4CCOCC4)c([C@@H]4CCCN4)c3)cc12 [Co. 1] | 1

Please let me know if CC(=O)N(C)CCNC(=O)c1c[nH]c2ncc(-c3ccc(C4CCOCC4)c(CN(C)C)c3)cc12 [Co. 32] shows IC50 below 30 nM.
0

Hi there! Is IC50 for CN(C)Cc1cc(-c2cnc3[nH]cc(C(NCc4ncco4)C(F)(F)F)c3c2)ccc1C1CCOCC1 (stereo not shown) [Co. 37] below 30 nM, do you know?
1

Find out if reported IC50 for CC(C)C(CO)CNC(c1c[nH]c2ncc(-c3ccc(C4CCOCC4)c(CN(C)C)c3)cc12)C(F)(F)F (stereo not shown) [Co. 36] is less than 30 nM
0

For CN(C)Cc1cc(-c2cnc3[nH]cc(C(=O)NCc4nccs4)c3c2)ccc1C1CCOCC1 [Co. 24] , is the recorded IC50 below the cut-off of 30 nM?
1

Does this compound meet the criterion IC50 < 30 nM? CC(C)C(CO)CNCc1c[nH]c2ncc(-c3ccc(C4CCOCC4)c(CN(C)C)c3)cc12 (stereo not shown) [Co. 34]
0

----------
Recorded IC50, one value per entry.
# assayed system: full-length human Hpk1 (Homo sapiens, UniProt Q92918)
# Construct: full-length human Hpk1 with an N-terminal Glutatione S-transferase (GST) tag; GST (N); made in house; host or cells: baculovirus/insect cell expression system
# assay remarks: HPK1 kinase assay (ADP Glo)
# Format: biochemical
# assay setup: GST-Hpk1, 75 μM ATP solution added, ADP Glo luminescence; read-out: Hpk1 biochemical (pIC50) (converted)
Please reply with the bare figure in nM and do not write the unit itself.

In one line, give reported IC50 of the entry N#Cc1c[nH]c2ncc(-c3ccc(C4CCOCC4)c(C4CCCN4)c3)cc12 (centres unmarked) [Co. 3] .
3.16

----------
Reported IC50 is given for each of the following compounds.
# assayed system: Hpk1 (Homo sapiens)
# Construct: expressed in transfected cells; host or cells: HEK293 cells engineered to express Hpk1 and SLP76
# assay remarks: SLP76 phosphorylation assay (HEK293 cells expressing Hpk1 and SLP76)
# Format: cell-based
# assay setup: SLP76 phosphorylation at S376, HEK293 cells expressing Hpk1 and SLP76, 4 hours incubation; read-out: pSLP76 (HEK293) (pIC50) (converted)
# Protocol: Hpk1 inhibition in cells was determined by detection of SLP76 phosphorylation at S376 in lysates from HEK293 cells engineered to express Hpk1 and SLP76. Serial dilutions of test compounds were prepared in cell culture medium and 20 μl was transferred into each well of a 96-well plate containing HEK293 cells in 180 μl of culture medium. […] Wells were washed 4 times with base buffer, 150 μl Read Buffer T was added to each well, and the plates were read in a Mesoscale plate reader (MSD). […]

Please supply the value of reported IC50 for the item c1cc2cc(-c3ccc(C4CCOCC4)c(C4CCCN4)c3)cnc2[nH]1 (centres unmarked)
0.389 µM

Give the value of IC50 reported for the following: `CN(C)Cc1cc(-c2cnc3[nH]cc(C(=O)N[C@@H]4CCC[C@@H]4O)c3c2)ccc1C1CCOCC1`
0.263 µM

Give a short answer stating reported IC50 for `CN(C)Cc1cc(-c2cnc3[nH]cc(C(=O)NCC4(CO)CC4)c3c2)ccc1C1CCOCC1` .
0.38 µM

Assign IC50 to the following record: CC(C)[C@H](CO)CNC(=O)c1c[nH]c2ncc(-c3ccc(C4CCOCC4)c(CN(C)C)c3)cc12 (single isomer, unassigned) [Co. 31a]
0.257 µM

Please give the documented IC50 of CN(C)Cc1cc(-c2cnc3[nH]cc(C(=O)NCC4CCC(=O)N4C)c3c2)ccc1C1CCOCC1 (centres unmarked)
4.27 µM

Check the records and state IC50 for `CC(=O)N(C)CCNC(=O)c1c[nH]c2ncc(-c3ccc(C4CCOCC4)c(CN(C)C)c3)cc12`
1.58 µM

----------
# assayed system: full-length human Hpk1 (Homo sapiens, UniProt Q92918)
# Construct: full-length human Hpk1 with an N-terminal Glutatione S-transferase (GST) tag; GST (N); made in house; host or cells: baculovirus/insect cell expression system
# assay remarks: HPK1 kinase assay (ADP Glo)
# Type: biochemical
# assay setup: GST-Hpk1, 75 μM ATP solution added, ADP Glo luminescence; read-out: Hpk1 biochemical (pIC50) (converted)
parameter measured: IC50 (nM)
Respond numerically; units are nM and should not be typed.

# example entries with known answers
compound | IC50, nM
CN(C)Cc1cc(-c2cnc3[nH]cc(C(=O)NCC4(CO)COC4)c3c2)ccc1C1CCOCC1 | 53.7
c1cc2cc(-c3ccc(C4CCOCC4)c(C4CCCN4)c3)cnc2[nH]1 (stereo not drawn) | 30.2
CN(C)Cc1cc(-c2cnc3[nH]cc(C(=O)N(C)C)c3c2)ccc1C1CCOCC1 [Co. 20b] | 93.3
N#CCc1c[nH]c2ncc(-c3ccc(C4CCOCC4)c([C@@H]4CCCN4)c3)cc12 | 11.2
CN(C)Cc1cc(-c2cnc3[nH]cc(C(=O)NS(=O)(=O)C4CC4)c3c2)ccc1C1CCOCC1 | 9.12

# context switch: different compound, same IC50
Note down IC50 recorded for `CN(C)Cc1cc(-c2cnc3[nH]cc(C(=O)NCC4(CO)CCCC4)c3c2)ccc1C1CCOCC1`
3.8

----------
Reported IC50 values follow for various compounds
# assayed system: full-length human Hpk1 (Homo sapiens, UniProt Q92918)
# Construct: full-length human Hpk1 with an N-terminal Glutatione S-transferase (GST) tag; GST (N); made in house; host or cells: baculovirus/insect cell expression system
# assay remarks: HPK1 kinase assay (ADP Glo)
# Type: biochemical
# assay setup: GST-Hpk1, 75 μM ATP solution added, ADP Glo luminescence; read-out: Hpk1 biochemical (pIC50) (converted)
Reply with just the number (in nM).

Determine from records and report IC50 for c1coc(CNCc2c[nH]c3ncc(-c4ccc(C5CCOCC5)c(C5CCCN5)c4)cc23)n1 (stereo not shown) [Co. 35]
22.9

Report IC50 for CN(C)Cc1cc(-c2cnc3[nH]cc(C(=O)NCCNC(=O)C(F)F)c3c2)ccc1C1CCOCC1 [Co. 29]
12.3

Report IC50, nothing else, for this compound: COCC(C)(O)CNC(=O)c1c[nH]c2ncc(-c3ccc(C4CCOCC4)c(CN(C)C)c3)cc12 (stereo not shown) [Co. 30]
15.8

Find the measured IC50 of CN(C)Cc1cc(-c2cnc3[nH]cc(C(=O)NCC4(O)CCCC4)c3c2)ccc1C1CCOCC1 [Co. 23] and report it.
10.5

Check the records and state IC50 for CN(C)Cc1cc(-c2cnc3[nH]cc(C(=O)NCC(C)(C)O)c3c2)ccc1C1CCOCC1 [Co. 12]
5.75

Note IC50 for the compound shown: Cc1cc2cc(-c3ccc(C4CCOCC4)c(C4CCCN4)c3)cnc2[nH]1 (stereo not shown) [Co. 2]
145

Retrieve IC50 measured for CN(C)Cc1cc(-c2cnc3[nH]cc(C(=O)N[C@@H]4CCC[C@@H]4O)c3c2)ccc1C1CCOCC1 [Co. 18] and print it.
2.88
